B1: FCHO1 (parent)
chain: HLELTRKLQDLIKDVLRYGEEQLK

variants of: B1; test: protein stability index of a GFP-peptide fusion (GPS, HEK-293T) (PSI 1-6); higher = more stable; conditions: c terminus: a fixed tail appended;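 note: lentivirally expressed fusions sorted by FACS into six bins by GFP to DsRed ratio, PSI derived from sequencing read proportions per bin multiplied by bin number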

[
  {
    "mutation-name": "R17F",
    "protein stability index": 3.06
  },
  {
    "mutation-name": "K24F",
    "protein stability index": 2.05
  },
  {
    "mutation-name": "D14L",
    "protein stability index": 1.99
  },
  {
    "mutation-name": "K7H",
    "protein stability index": 1.99
  },
  {
    "mutation-name": "H1F",
    "protein stability index": 1.99
  }
]
